# System: MRSA strain ATCC 700699
# PROTOCOL: Minimum Inhibitory Concentration (MIC) assay, Methicillin Resistant S. Aureus
# Format: cell-based
# CONDITION_DETAILS: Staphylococcus aureus; broth microdilution; read-out: MIC against Methicillin Resistant S. Aureus
# Experimental: It has been unexpectedly discovered that substitution of compounds of Formula I and Formula II with a methoxy substituent at the R8 position increases the anti-microbial activity of the compound against Methicillin resistant Staphylococcus Aureus bacteria while at the same time decreasing the cellular toxicity of the compound. […] Therapeutic range is determined using a standard assay of cytotoxicity such as the Alamar blue assay provided in Example 10. […]
Structures can show the parent of a compound that is named as a salt.
Give measured MIC for each item. Keep answers brief.

COc1c(N2CC[C@@H](C3(N)CC3)C2)c(F)cc2c(=O)c3c(=O)[nH]sc3n(C3CC3)c12 [Compound 55, hydrochloride] ... ≤ 1 µg/mL
COc1c(N2CCC(CN)C2)c(F)cc2c(=O)c3c(=O)[nH]sc3n(C3CC3)c12 (stereo not shown) ... ≤ 1 µg/mL
COc1c(N2CC[C@@H](C(C)NC3CC3)C2)c(F)cc2c(=O)c3c(=O)[nH]sc3n(C3CC3)c12 (stereo partly shown) ... ≤ 1 µg/mL
COc1c(N2CC(C)C(C#N)C2)c(F)cc2c(=O)c3c(=O)[nH]sc3n(C3CC3)c12 (stereo not shown) ... ≤ 1 µg/mL
CCNC(C)(C)[C@@H]1CCN(c2c(F)cc3c(=O)c4c(=O)[nH]sc4n(C4CC4)c3c2OC)C1 ... ≤ 1 µg/mL
COc1c(N2CC[C@@H](CN)C2)c(F)cc2c(=O)c3c(=O)[nH]sc3n(C3CC3)c12 ... ≤ 1 µg/mL

Next:
*Q* Give me measured MIC, please, for this molecule: `COc1c(N2CC[C@H](CN)C2)c(F)cc2c(=O)c3c(=O)[nH]sc3n(C3CC3)c12`
*A* ≤ 1 µg/mL

----------
# PROTOCOL: in vitro
# Type: cell-based
# CONDITION_DETAILS: Chinese hamster
MEASURE: CC50

*Q* Tell me its CC50 given CC(C)(C)c1ccc(C(O)CCCN2CCC(C(O)(c3ccccc3)c3ccccc3)CC2)cc1 (stereo not shown) [Terfenadine, reference compound] as the entry.
*A* 4.3 to 6.5 µM

Values compiled from patent US8044204B2.
